Target protein (sequence): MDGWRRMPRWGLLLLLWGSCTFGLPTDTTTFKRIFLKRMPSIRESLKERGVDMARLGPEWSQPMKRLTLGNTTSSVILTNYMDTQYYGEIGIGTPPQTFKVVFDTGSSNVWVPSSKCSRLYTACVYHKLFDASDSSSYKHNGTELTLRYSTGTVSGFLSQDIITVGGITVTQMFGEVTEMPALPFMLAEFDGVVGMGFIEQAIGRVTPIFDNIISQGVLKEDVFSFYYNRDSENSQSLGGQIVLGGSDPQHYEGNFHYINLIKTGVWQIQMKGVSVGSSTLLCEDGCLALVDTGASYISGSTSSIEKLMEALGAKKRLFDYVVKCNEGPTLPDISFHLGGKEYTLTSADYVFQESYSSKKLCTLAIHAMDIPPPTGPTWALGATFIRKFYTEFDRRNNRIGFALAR
readout-label: IC50 (nM)
Please state the figure in nM; there is no need to write the unit.

Exercise: Entry `COP(=O)(O)C[C@H](O)[C@H](CC1CCCCC1)NC(=O)[C@H](CC(C)C)NC(=O)[C@H](Cc1ccccc1)NC(=O)OC(C)(C)C` needs its IC50 filled in; supply it.
Solution: 350

Exercise: Entry `COP(=O)(C[C@@H](O)[C@H](Cc1ccccc1)NC(=O)[C@H](Cc1c[nH]cn1)NC(=O)[C@H](Cc1ccccc1)NC(=O)OC(C)(C)C)OC` needs its IC50 filled in; supply it.
Solution: 4000

Exercise: Entry `CCCCOP(=O)(C[C@H](O)[C@H](CC1CCCCC1)NC(=O)[C@H](Cc1c[nH]cn1)NC(=O)[C@H](Cc1ccccc1)NC(=O)OC(C)(C)C)OCCCC` needs its IC50 filled in; supply it.
Solution: 400

Exercise: Entry COP(=O)(CC(O)[C@H](Cc1ccccc1)NC(=O)[C@H](C)NC(=O)C(Cc1ccccc1)NC(=O)OC(C)(C)C)OC (stereo partly specified) needs its IC50 filled in; supply it.
Solution: 15000

Exercise: Entry `COP(=O)(C[C@H](O)[C@H](CC1CCCCC1)NC(=O)[C@H](CC(C)C)NC(=O)[C@H](Cc1ccccc1)NC(=O)OC(C)(C)C)OC` needs its IC50 filled in; supply it.
Solution: 20

Exercise: Entry `CC(C)(C)OC(=O)N[C@@H](Cc1ccccc1)C(=O)N[C@@H](Cc1c[nH]cn1)C(=O)N[C@@H](CC1CCCCC1)[C@@H](O)CP1(=O)OCCCO1` needs its IC50 filled in; supply it.
Solution: 80
